biological target: human CD33 N113A (human, UniProt P20138 18-364); assay: flow cytometry on HEK293-T, alanine scan
Sequence (P20138 18-364 N113A limits assumed): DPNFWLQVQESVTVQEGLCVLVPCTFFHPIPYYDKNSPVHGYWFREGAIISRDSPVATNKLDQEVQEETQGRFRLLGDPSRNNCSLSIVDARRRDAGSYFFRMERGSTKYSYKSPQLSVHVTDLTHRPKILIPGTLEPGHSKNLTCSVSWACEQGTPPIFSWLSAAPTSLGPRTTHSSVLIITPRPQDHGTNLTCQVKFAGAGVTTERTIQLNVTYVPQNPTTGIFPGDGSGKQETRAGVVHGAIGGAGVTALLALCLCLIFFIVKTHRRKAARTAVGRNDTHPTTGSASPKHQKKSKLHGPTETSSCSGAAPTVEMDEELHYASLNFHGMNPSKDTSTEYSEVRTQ

{"binder": "Refmab #2 (antibody, V domains shown, The alanine scan used IgG or Fab) VH: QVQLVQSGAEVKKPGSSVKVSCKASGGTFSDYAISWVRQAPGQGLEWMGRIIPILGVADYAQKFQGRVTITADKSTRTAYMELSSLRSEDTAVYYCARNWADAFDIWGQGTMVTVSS VL: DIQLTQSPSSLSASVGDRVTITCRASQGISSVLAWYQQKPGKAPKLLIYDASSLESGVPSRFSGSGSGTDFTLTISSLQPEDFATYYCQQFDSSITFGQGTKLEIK", "Mean % WT Binding": "91 % WT binding"}
